Provide the reported logP of each item.
- assayInfo: physchem
- experimentalContext: n-octanol/water
Give bare numbers.

Some entries whose results are on file:
>>> print(df.to_string())
                                   compound  readoutlabel  obsvalue
0  CC/C=C\CCOC(=O)c1ccccc1O [(3Z)-3-hexen-1-yl salicylate]          logP      4.83
1   CC(=O)OC(c1ccccc1)C(Cl)(Cl)Cl (racemic)          logP       3.2
2  C/C=C/C(=O)[C@@H]1[C@@H](C)C=CCC1(C)C (racemic)          logP      4.13

# map each compound to its logP
1. CCOC(=O)/C(C)=C/C(C)C [ethyl (2E)-2,4-dimethyl-2-pentenoate]
2. C=C(C)CC(C)OC(=O)C(C)C (racemic)
3. CCCCCCCC(=O)OCC [ethyl octanoate]
4. CC/C=C\CCOC(=O)CCC [(3Z)-3-hexen-1-yl butyrate]
5. CCCCCCCCCC=O [DECANAL″, DECANAL]

Reply:
3.35
3.57
4.2
3.59
3.99

# map each compound to its logP
1. CC(=O)OC(C)CCC=C(C)CCC=C(C)C (centres unmarked) [1,5,9-TRIMETHYL-4,8-DECADIENYL ACETATE]
2. CC(C)C(=O)OCCOc1ccccc1 [2-phenoxyethyl 2-methylpropanoate]
3. CCCOC(=O)[C@H](C)OC(C)(C)CC

Reply:
1. 5.28
2. 2.82
3. 3.17

====

- assayInfo: physchem
- experimentalContext: n-octanol/water
readoutLabel: logP

Some entries whose results are on file:
                                   molecule  readoutlabel  obsvalue
0  CCCCCCC1CCCC(=O)O1 (stereo not shown) [6-hexyltetrahydro-2H-pyran-2-one]          logP         3
1  CCCC1CCCC(=O)O1 (racemic) [(+−)-6-propyltetrahydro-2H-pyran-2-one]          logP      1.47
2  CC(=O)OCC=C(C)C [3-methyl-2-buten-1-yl acetate]          logP      2.19
3         Cc1ccc2c(c1)CC(C)(CO)C2 (racemic)          logP      3.12
4     C/C=C/C(=O)C1C(C)=CCCC1(C)C (racemic)          logP      3.65
5  CC(CC=O)CCCC(C)(C)O (racemic) [(+−)-7-hydroxy-3,7-dimethyloctanal]          logP         2

# map each molecule to its logP
1. C/C=C(\C)C(=O)OCC/C=C\CC
2. CCCCCCCCC1CCC(=O)O1 (racemic) [(+−)-5-octyldihydro-2(3H)-furanone]
3. CC(CO)c1ccccc1 (racemic) [(+−)-2-phenyl-1-propanol]
4. CC(C)=CCCC(C)CCCC(C)C=O (racemic)

Reply:
1. 3.96
2. 3.82
3. 1.74
4. 5.2

====

- assayInfo: physchem
- experimentalContext: n-octanol/water
readoutLabel: logP

>>> df
                                   compound  obsvalue
0  CCCC(S)CCOC(C)=O (racemic) [(+−)-3-mercaptohexyl acetate]      2.64
1  CCCCCC/C=C/C(=O)OC [methyl (2E)-2-nonenoate]      4.05
2          CC/C=C\CCCCCO [(Z)-6-NONEN-1-OL]      3.44
3               C/C=C/c1ccc(OC(C)=O)c(OC)c1      2.56
4  CCCCC(CC)C(=O)OC (racemic) [(+−)-methyl 2-ethylhexanoate]      3.37
5               CC(=O)/C=C/C1=C(C)CCCC1(C)C      3.88
6     CCCCCCC#CC(=O)OC [METHYL 2-NONYNOATE]      3.51
7  CC(=O)O[C@@H]1C(C)(C)CCC[C@]12CC=C(C)C[C@H]2C (racemic)      6.44
8  CCCCCC1CCCC(=O)O1 (racemic) [(+−)-6-pentyltetrahydro-2H-pyran-2-one]      2.22
9                      CC1(C)CC=C(CCC=O)CC1       3.3

# map each compound to its logP
1. C/C=C/C(=O)C1=C(C)C=CCC1(C)C
2. CCC(=O)O[C@H]1C[C@@H]2CC[C@@]1(C)C2(C)C
3. COc1ccc(CC(C)C=O)cc1 (racemic)

Reply:
1: 3.27; 2: 4.66; 3: 2.8

====

- assayInfo: Volatility of perfuming compounds in air
- Format: physicochemical
- experimentalContext: Table 8, perfuming compounds having a sweet note
Classes by Volatility (μg/l air): Low (below 70 μg/l air), Mid (70 μg/l air to below 500 μg/l air), High (500 μg/l air or more)

>>> df
                                   compound  classification
0  CCCCCC1CCCC1=O (racemic) [(+−)-2-pentylcyclopentanone]            High
1                                 SCc1ccco1            High
2              CCC(=O)/C=C/C1=C(C)CCCC1(C)C             Low

Ask: Which band does COC(=O)Cc1ccccc1 [METHYL PHENYLACETATE] fall in?
Reply: High

Ask: # iterate: CCCCC1CCCC(=O)O1 (centres unmarked) [5-NONANOLIDE]
Reply: Low

Ask: # iterate: CCCCCC1CCCC1O (racemic) [(+−)-2-PENTYL-1-CYCLOPENTANOL]
Reply: Mid

Ask: # iterate: OCCc1ccccc1
Reply: Mid

Ask: # iterate: CC(C)C(=O)OCCc1ccccc1 [2-PHENYLETHYL ISOBUTYRATE]
Reply: Low

Ask: # iterate: C/C=C/c1ccc(OC)cc1 [1-methoxy-4-[(1E)-1-propen-1-yl]benzene]
Reply: Mid

Ask: # iterate: COc1cc(C=O)ccc1OC(=O)C(C)C
Reply: Low

====

Provide the reported Volatility (μg/l air) of each item.
- assayInfo: Volatility of perfuming compounds in air
- Format: physicochemical
- experimentalContext: Table 8, perfuming compounds having a sweet note
The number alone won't do; follow it with the unit.

Some entries whose results are on file:
In [3]: df
Out[3]:
                                   compound          obsvalue
0  Cc1cnc(C)c(C)n1 [2,3,5-TRIMETHYLPYRAZINE]  7897.31 μg/l air
1  CC(=O)OCCc1ccccc1 [2-PHENYLETHYL ACETATE]   201.26 μg/l air
2  CCCCCCC1CCC(=O)O1 (racemic) [(+−)-4-DECANOLIDE]    10.49 μg/l air

# map each compound to its Volatility (μg/l air)
1. CC(C)CCOCCc1ccccc1 [3-METHYLBUTYL 2-PHENYLETHYL ETHER]
2. COc1cc(C=O)ccc1O [4-hydroxy-3-methoxybenzaldehyde]

Reply:
1. 110.11 μg/l air
2. 4.24 μg/l air

# map each compound to its Volatility (μg/l air)
1. CCCC=C1OC(=O)c2ccccc21 [3-BUTYLIDENE-1-BENZO[C]FURANONE]
2. O=c1ccc2ccccc2o1 [2-CHROMENONE]
3. CCCC(=O)OC(C)(C)Cc1ccccc1 [1,1-DIMETHYL-2-PHENYLETHYL BUTANOATE]
4. O=C1CCCCCCCCCCC(=O)OCCO1 [1,4-dioxacyclohexadecane-5,16-dione]
5. CC=CC(=O)C(C)CC (stereo not shown) [5-METHYL-2-HEPTEN-4-ONE]

Reply:
1. 14.37 μg/l air
2. 0.51 μg/l air
3. 34.65 μg/l air
4. 0.46 μg/l air
5. 5525.83 μg/l air

====

Provide the reported Log P (n-octanol/water) of each item.
- assayInfo: Log P (n-octanol/water) of perfuming compounds
- experimentalContext: Table 8, perfuming compounds having a sweet note
Answers are plain numbers.

Some entries whose results are on file:
>>> df
                                   compound  obsvalue
0                COc1cc(C=O)ccc1OC(=O)C(C)C      1.90
1  O=C(Cc1ccccc1)OCCc1ccccc1 [2-PHENYLETHYL PHENYLACETATE]      3.59
2                               O=Cc1ccccc1      1.33
3               CCCCOC(C)=O [BUTYL ACETATE]      2.11
4     C/C=C/C(=O)C1C(C)=CCCC1(C)C (racemic)      3.65
5           CCCCCC(=O)OCC [ETHYL HEXANOATE]      3.12
6  CCCCCC1CCCC1=O (racemic) [(+−)-2-pentylcyclopentanone]      3.62
7  C/C=C(\C)C(=O)OCCCCCC [hexyl (2E)-2-methyl-2-butenoate]      4.80
8          C=C(C)CC(C)OC(=O)C(C)C (racemic)      3.57
9  CCCCCC1CCCC(=O)O1 (racemic) [(+−)-6-pentyltetrahydro-2H-pyran-2-one]      2.22

# map each compound to its Log P (n-octanol/water)
1. CCCCCCC1CCCC(=O)O1 (stereo not shown) [6-hexyltetrahydro-2H-pyran-2-one]
2. CCCCCCCC1CCCC(=O)O1 (racemic) [(+−)-6-heptyltetrahydro-2H-pyran-2-one]
3. CC/C=C\CCOC(=O)C/C=C\CC [(3Z)-3-hexen-1-yl (3Z)-3-hexenoate]

Reply:
3.00
3.42
4.22
